Source listed as patent US5945434A.

Each entry below carries its reported EC50.
- SYSTEM_UNDER_TEST: 5-HT4 receptor (rat oesophageal tunica muscularis mucosae) (Rattus norvegicus)
- Construct: oesophageal tunica muscularis mucosae excised from rats; from tissue; host or cells: rat oesophageal tunica muscularis mucosae
- Sequence (Q62758 whole entry): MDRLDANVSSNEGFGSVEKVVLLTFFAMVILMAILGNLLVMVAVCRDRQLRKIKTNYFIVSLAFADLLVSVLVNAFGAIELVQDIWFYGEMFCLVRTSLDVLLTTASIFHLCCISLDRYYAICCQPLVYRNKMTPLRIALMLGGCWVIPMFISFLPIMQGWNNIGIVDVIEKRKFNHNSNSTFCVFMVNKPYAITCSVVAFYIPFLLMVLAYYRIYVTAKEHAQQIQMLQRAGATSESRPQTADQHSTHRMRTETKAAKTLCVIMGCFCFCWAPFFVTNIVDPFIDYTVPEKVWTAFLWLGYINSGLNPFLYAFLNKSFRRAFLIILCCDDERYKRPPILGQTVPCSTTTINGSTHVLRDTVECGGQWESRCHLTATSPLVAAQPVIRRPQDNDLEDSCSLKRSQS
- EXPERIMENTAL_DETAILS: 5-HT4 agonist activity: relaxation of carbachol-contracted rat oesophageal tunica muscularis mucosae
- Type: cell-based
- ASSAY_SETUP: concentration causing 50% relaxation of the carbachol (1×10^-6 M)-induced contraction; cumulative administration; read-out: Activity (-log ED50) (converted)

[
  {
    "COMPOUND": "O=C(NCCN1CCN(Cc2ccc(F)cc2)CC1)c1n[nH]c2ccccc12 [Compound 11]",
    "EC50, µM": 12.6
  },
  {
    "COMPOUND": "CCCCN1CCN(CCNC(=S)c2nn(CCC)c3ccccc23)CC1 [Compound 32]",
    "EC50, µM": 10.5
  },
  {
    "COMPOUND": "O=C(NCC=C1CCN(Cc2ccc(F)cc2)CC1)c1n[nH]c2ccccc12 [Compound 9]",
    "EC50, µM": 7.41
  },
  {
    "COMPOUND": "CCCCN1CCN(CCNCc2nn(CCC)c3ccccc23)CC1 [Compound 33]",
    "EC50, µM": 29.5
  }
]

----------
- SYSTEM_UNDER_TEST: 5-HT4 receptor (rat oesophageal tunica muscularis mucosae) (Rattus norvegicus)
- Construct: oesophageal tunica muscularis mucosae excised from rats; from tissue; host or cells: rat oesophageal tunica muscularis mucosae
- EXPERIMENTAL_DETAILS: 5-HT4 agonist activity: relaxation of carbachol-contracted rat oesophageal tunica muscularis mucosae
- Format: cell-based
pEC50: −log10 of the molar value.
READOUT_LABEL: pEC50

[
  {
    "COMPOUND": "CCCCN1CCC(CCNC(=O)c2nn(CCC)c3ccccc23)CC1",
    "QUANTITATIVE_READOUT": 5.89
  },
  {
    "COMPOUND": "CCCn1nc(C(=O)NC2CCN(C)CC2)c2ccccc21",
    "QUANTITATIVE_READOUT": 5.16
  },
  {
    "COMPOUND": "CCCCN1CCN(CCNC(=O)c2nn(C(C)C)c3ccccc23)CC1",
    "QUANTITATIVE_READOUT": 5.53
  },
  {
    "COMPOUND": "CCCCN1CCC(=CCNC(=O)c2nn(CCC)c3ccccc23)CC1",
    "QUANTITATIVE_READOUT": 6.36
  },
  {
    "COMPOUND": "C=CCn1nc(C(=O)NCCN2CCN(Cc3ccc(F)cc3)CC2)c2ccccc21",
    "QUANTITATIVE_READOUT": 5.13
  },
  {
    "COMPOUND": "CCCCN1CCN(CCCNC(=O)c2nn(CCC)c3ccccc23)CC1",
    "QUANTITATIVE_READOUT": 4.98
  },
  {
    "COMPOUND": "CCCCN1CCN(CCNC(=O)c2nn(CC)c3ccccc23)CC1",
    "QUANTITATIVE_READOUT": 4.99
  },
  {
    "COMPOUND": "CCCn1nc(C(=O)NCC2CCN(C)CC2)c2ccccc21",
    "QUANTITATIVE_READOUT": 5.30
  },
  {
    "COMPOUND": "CCCN1CCN(CCNC(=O)c2nn(CCC)c3ccccc23)CC1",
    "QUANTITATIVE_READOUT": 5.05
  },
  {
    "COMPOUND": "CCCCN1CCN(CCNC(=O)c2nn(C(CC)CC)c3ccccc23)CC1",
    "QUANTITATIVE_READOUT": 5.22
  },
  {
    "COMPOUND": "CCCn1nc(C(=O)NCCN2CCN(Cc3ccc(OC)cc3)CC2)c2ccccc21",
    "QUANTITATIVE_READOUT": 5.80
  },
  {
    "COMPOUND": "CCCCN1CCCC(NC(=O)c2nn(CCC)c3ccccc23)CCC1",
    "QUANTITATIVE_READOUT": 5.19
  },
  {
    "COMPOUND": "CCCn1nc(C(=O)NCC=C2CCN(Cc3ccc(F)cc3)CC2)c2ccccc21",
    "QUANTITATIVE_READOUT": 5.47
  },
  {
    "COMPOUND": "CCCCN1CCC(NC(=O)c2nn(CCC)c3ccccc23)CC1",
    "QUANTITATIVE_READOUT": 5.55
  },
  {
    "COMPOUND": "CCCCN1CCN(CCNC(=O)c2nn(C(C)CC)c3ccccc23)CC1 (stereo not shown)",
    "QUANTITATIVE_READOUT": 5.26
  },
  {
    "COMPOUND": "CCCCN1CCC(CNC(=O)c2nn(CCC)c3ccccc23)CC1",
    "QUANTITATIVE_READOUT": 5.10
  },
  {
    "COMPOUND": "CCCn1nc(C(=O)NCC=C2CCN(C)CC2)c2ccccc21",
    "QUANTITATIVE_READOUT": 5.01
  },
  {
    "COMPOUND": "CCCn1nc(C(=O)NCC2CCNCC2)c2ccccc21",
    "QUANTITATIVE_READOUT": 4.32
  },
  {
    "COMPOUND": "CCCn1nc(C(=O)NC2CCNCC2)c2ccccc21",
    "QUANTITATIVE_READOUT": 3.95
  }
]
